# TEST TARGET: UniProtKB P03303
# ASSAY OVERVIEW: HRV3C protease assay (duplex, SAMDI-MS)
# Type: biochemical, HRV
# CONDITION SUMMARY: HRV3C, 30 mins preincubation, bound; read-out: HRV IC50
OBSERVED PROPERTY: IC50

A selection of reference data follows.
# MOLECULE, IC50
records = [
    ("COc1cccc2[nH]c(C(=O)N3C[C@@H]4CCC[C@@H]4[C@H]3C(=O)N[C@@H](C[C@@H]3CCNC3=O)C(=O)COP(=O)(O)O)cc12", "> 10 µM"),
    ("CC(C)C(=O)OCC(=O)[C@H](C[C@@H]1CCNC1=O)NC(=O)[C@@H]1[C@H]2CCC[C@H]2CN1C(=O)c1cc2c(Cl)cc(Cl)cc2[nH]1", "> 10 µM"),
    ("COc1cccc2[nH]c(C(=O)N3Cc4ccccc4C[C@H]3C(=O)N[C@@H](C[C@@H]3CCNC3=O)C(=O)COCc3ccccc3)cc12", "> 10 µM"),
    ("COc1cccc2[nH]c(C(=O)N3C[C@@H]4CCC[C@@H]4[C@H]3C(=O)N[C@@H](C[C@@H]3CCNC3=O)C(=O)c3nc4ccccc4s3)cc12", "> 10 µM"),
    ("O=C(NCCOC1CCCC1)C(=O)[C@H](C[C@@H]1CCNC1=O)NC(=O)[C@@H]1[C@H]2CCC[C@H]2CN1C(=O)c1cc2c(Cl)cc(Cl)cc2[nH]1", "> 10 µM"),
]

Please indicate recorded IC50 of COc1cccc2[nH]c(C(=O)N3C[C@@H]4CCC[C@@H]4[C@H]3C(=O)N[C@@H](CN3CCCNC3=O)C(=O)C(=O)NC3CC3)cc12 measured with UniProtKB P03303.
> 10 µM

Please indicate recorded IC50 of COc1ccnc2[nH]c(C(=O)N3C[C@@H]4CCC[C@@H]4[C@H]3C(=O)N[C@@H](C[C@@H]3CCNC3=O)C(=O)CO)cc12 measured with UniProtKB P03303.
> 10 µM
